- Test system: L1210/0 murine leukemia cells
- assayMethodText: Cytotoxic effect on L1210/0 cells
- Type: cell-based
- studyConditions: Tables 5 and 7, L1210/0 cells
cytotoxic effect, L1210/0 values by entry

Worked cases, answers included:
{"compound": "Cc1cn([C@H]2C[C@H](SSc3ccccc3[N+](=O)[O-])[C@@H](CO)O2)c(=O)[nH]c1=O [Compound 26]", "assayedTarget": "L1210/0 murine leukemia cells", "cytotoxic effect, L1210/0": "33 ± 7"}
{"compound": "O=c1ccn([C@@H]2O[C@H](CO)C=C2SSc2ccc([N+](=O)[O-])cc2)c(=O)[nH]1 [Compound 16]", "assayedTarget": "L1210/0 murine leukemia cells", "cytotoxic effect, L1210/0": "42 ± 4"}

Turning to the following compound.
Quick check: cytotoxic effect, L1210/0 of Cc1cn(C2OC(CO)C=C2SSc2ccccc2[N+](=O)[O-])c(=O)[nH]c1=O (stereo not shown) [Compound 15] ? 42 ± 3

====

- assayMethodText: Cytotoxic concentration in CEM cells (antiviral tests)
- Type: cell-based, human
- studyConditions: human; First and Second Series, second table; viability of CEM cells
reportedMetric: CC50 (µM)
Respond numerically; units are µM and should not be typed.

{"compound": "Cc1cn([C@H]2CC(SSCCCCCCO)[C@@H](CO)O2)c(=O)[nH]c1=O (stereo partly shown)", "readoutUnits": "µM", "CC50": 107}

Quick check: CC50 of C=CCSS[C@H]1C[C@H](n2cc(C)c(=O)[nH]c2=O)O[C@@H]1CO [Compound 20, 3′-deoxythymidin-3′-yl allyl disulfide] ? 53

====

- System: human CEM cells
- assayMethodText: Cytotoxicity (MTT) on CEM cells
- Type: cell-based
- studyConditions: Homo sapiens, CCRF-CEM, read-out: CC50 CEM
CC50 values by entry

Worked cases, answers included:
{"compound": "C[Si](C)(C)CCSC1=C[C@@H](CO)O[C@H]1n1ccc(N)nc1=O", "CC50": "217 µM"}
{"compound": "C[Si](C)(C)CC[S+]([O-])C1=C[C@@H](CO)O[C@H]1n1ccc(=O)[nH]c1=O (stereo partly shown)", "CC50": "> 200 µM"}
{"compound": "C[Si](C)(C)CCSC1=C[C@@H](CO)O[C@H]1n1ccc(=O)[nH]c1=O", "CC50": "156 µM"}

Quick check: CC50 of Cc1cn([C@@H]2O[C@H](CO)C=C2S(=O)(=O)CC[Si](C)(C)C)c(=O)[nH]c1=O ? 63 µM

====

- Tested on: L1210/0 murine leukemia cells
- assayMethodText: Cytotoxic effect on L1210/0 cells
- Assay type: cell-based
- studyConditions: Tables 5 and 7, L1210/0 cells
cytotoxic effect, L1210/0 values by entry
Please give the numeric answer without any surrounding text.

Worked cases, answers included:
{"compound": "Cc1cn(C2OC(CO)C=C2SSc2ccc([N+](=O)[O-])cc2)c(=O)[nH]c1=O (centres unmarked)", "cytotoxic effect, L1210/0": 31}
{"compound": "CCCCSS[C@H]1C[C@H](n2cc(C)c(=O)[nH]c2=O)O[C@@H]1CO [Compound 24, 3′-deoxythymidin-3′-yl butyl disulfide]", "cytotoxic effect, L1210/0": 32}
{"compound": "Cc1cn([C@H]2C[C@H](SSCCO)[C@@H](CO)O2)c(=O)[nH]c1=O", "cytotoxic effect, L1210/0": 26}
{"compound": "Cc1cn([C@H]2C[C@H](SSc3ccc([N+](=O)[O-])cc3)[C@@H](CO)O2)c(=O)[nH]c1=O", "cytotoxic effect, L1210/0": 32}

Turning to the following compound.
Quick check: cytotoxic effect, L1210/0 of O=c1ccn([C@@H]2O[C@H](CO)C=C2SSc2ccccc2[N+](=O)[O-])c(=O)[nH]1 ? 43
